- measurement_target: T1, human CD324 on cells (MCF7, BR22, NTX tumor cells, 293-hCD324) (human, UniProt P12830 155-882)
- T1 sequence: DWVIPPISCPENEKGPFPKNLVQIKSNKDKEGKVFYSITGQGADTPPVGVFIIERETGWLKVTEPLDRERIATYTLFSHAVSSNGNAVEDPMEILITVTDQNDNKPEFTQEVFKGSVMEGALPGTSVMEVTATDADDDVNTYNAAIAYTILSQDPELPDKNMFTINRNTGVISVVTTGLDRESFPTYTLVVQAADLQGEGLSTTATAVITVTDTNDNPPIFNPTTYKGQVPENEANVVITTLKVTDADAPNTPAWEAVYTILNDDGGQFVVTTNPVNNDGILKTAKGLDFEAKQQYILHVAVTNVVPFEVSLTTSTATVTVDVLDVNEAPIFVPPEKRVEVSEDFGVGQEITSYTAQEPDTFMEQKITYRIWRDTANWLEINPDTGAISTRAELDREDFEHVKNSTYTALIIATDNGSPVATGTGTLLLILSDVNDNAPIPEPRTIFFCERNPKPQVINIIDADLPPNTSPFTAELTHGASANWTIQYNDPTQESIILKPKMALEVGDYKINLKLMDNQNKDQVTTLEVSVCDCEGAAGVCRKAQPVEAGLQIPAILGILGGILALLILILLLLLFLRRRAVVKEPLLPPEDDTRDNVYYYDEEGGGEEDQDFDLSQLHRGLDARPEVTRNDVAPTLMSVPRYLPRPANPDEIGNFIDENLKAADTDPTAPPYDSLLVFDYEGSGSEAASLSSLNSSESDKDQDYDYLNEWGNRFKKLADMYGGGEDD
- method_notes: cell-based or functional assay
readout_name: Normalized RLU at 10pM (MCF7, Fab-saporin)
Please state the value as a number alone, without comment.

Some binders with recorded Normalized RLU at 10pM (MCF7, Fab-saporin):
Measured Normalized RLU at 10pM (MCF7, Fab-saporin) of SC10.75 (antibody, V domains shown, murine mAb; variable regions only) VH: QVQLKESGPGLVAPSQSLSITCTVTGFSLSRYSVHWIRQPPGKGLEWLGMIWGGGSTDYNSALKSRLSINKDNSKSQVFLKMNSLQTVDTAMYYCARTQFYYGHDGGYAMDYWGQGTSVTVSS VL: DIVMSQSPSSLAVSVGEKVTMSCKSSQSLLYSNNQKNYLAWYQQKPGQSPKLLIYWASSRESGVPERFTGSGSGTDFTLTISSVKAEDLAVYYCQQYYSSPYTFGGGTKLK : 101

Measured Normalized RLU at 10pM (MCF7, Fab-saporin) of SC10.178 (antibody, V domains shown) VH: QILLVQSGPELKKPGETVKISCKANYTFTDYGMHWVKQAPGKGLKWMGWINPKTGVASYADDFKGRFAFSLETSASTAYLQINNLENEDTSIYFCARFFDYWGQGTTLTVSS VL: DIVLTQSPLSLLVSLGDQASISCRSSQSLVHSNGNTYLHWYLQKPGQSPNLLIFKVSNRFSGVPDRFSGSGSGTDFTLRISRVEAEDLGVYFCSQTTHVWTFGGGTKLEIK : 68

Switching to the query record.
Consider SC10.35 (antibody, V domains shown) VH: SDVQLQESGPGLVKPSQSLSLTCTVTDYSITSDYAWNWIRQFPGNNLEWMGNIGYSGDTSYNPSLKSRISITRDTSKNQFFLQLNSVTTEDSATYYCARSSLGPFDYWGQGTALTVSS VL: QIVLTQSPAIMSASPGERVTLTCSASSSVSSSFLYWYQQKSGSSPKLWIYSTSTLASGVPARFSGSGSGTSYSLTISSMEAEDAASYFCHQWSSYPWTFGGGTKLEIK . Its measured Normalized RLU at 10pM (MCF7, Fab-saporin) is 37.2
